Biological target: AChE (Homo sapiens)
Sequence (P22303 32-614): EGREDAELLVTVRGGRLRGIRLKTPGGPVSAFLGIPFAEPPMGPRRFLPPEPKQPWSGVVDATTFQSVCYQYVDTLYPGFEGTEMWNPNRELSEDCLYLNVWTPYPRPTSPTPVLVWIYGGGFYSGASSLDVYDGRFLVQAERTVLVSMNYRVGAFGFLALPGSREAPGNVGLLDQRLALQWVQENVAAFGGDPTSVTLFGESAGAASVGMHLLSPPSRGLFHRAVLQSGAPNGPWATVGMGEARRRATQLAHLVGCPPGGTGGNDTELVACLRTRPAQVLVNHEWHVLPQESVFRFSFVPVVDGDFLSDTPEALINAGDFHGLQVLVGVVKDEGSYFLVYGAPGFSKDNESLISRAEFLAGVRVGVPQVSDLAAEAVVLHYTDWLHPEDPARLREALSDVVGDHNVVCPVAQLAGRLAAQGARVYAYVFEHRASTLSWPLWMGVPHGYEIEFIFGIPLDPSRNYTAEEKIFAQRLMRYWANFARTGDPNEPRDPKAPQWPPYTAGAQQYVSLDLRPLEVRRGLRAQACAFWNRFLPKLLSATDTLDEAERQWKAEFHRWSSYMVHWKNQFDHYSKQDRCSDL
Assay: biochemical
Settings: 50 µM compound; mean ± SD; NA = not active
Experimental: A previously described modified protocol of Ellman's spectrophotometric assay in clear flat-bottomed, 96-well plates, was used. […] The absorbance of each well was measured at 415 nm using a microplate reader. […]

| Molecule | Test system | inhibition at 50 µM / % |
| --- | --- | --- |
| N#CC(C(N)=O)c1c([N+](=O)[O-])c(NCc2ccccc2)n(Cc2ccccc2)c1-c1ccc(Cl)cc1 (stereo not drawn) | AChE (Homo sapiens) | 18.7 |
| N#CC(C(N)=O)c1c([N+](=O)[O-])c2n(c1-c1ccccc1)CCCN2 (stereo not drawn) | AChE (Homo sapiens) | 39.8 |
| COc1ccc(-c2[nH]c(N)c([N+](=O)[O-])c2C(C#N)C(N)=O)cc1 (stereo not drawn) | AChE (Homo sapiens) | 47.7 |
| CCOC(=O)C(C(N)=O)c1c([N+](=O)[O-])c2n(c1-c1ccc(C)cc1)CC(C)(C)CN2 (stereo not drawn) | AChE (Homo sapiens) | 14.2 |
| CCOC(=O)C(C(N)=O)c1c([N+](=O)[O-])c2n(c1-c1ccccc1)CC(C)(C)CN2 (stereo not drawn) | AChE (Homo sapiens) | 13.5 |
| COC(=O)C(C(N)=O)c1c([N+](=O)[O-])c(SC)n(-c2ccc(C)cc2)c1-c1ccccc1 (stereo not drawn) | AChE (Homo sapiens) | 24 |
| COC(=O)C(C(N)=O)c1c([N+](=O)[O-])c2n(c1-c1ccc(C)cc1)CC(C)(C)CN2 (stereo not drawn) | AChE (Homo sapiens) | 14.9 |
| COC(=O)C(C(N)=O)c1c([N+](=O)[O-])c(SC)n(-c2ccc(C)c(C)c2)c1-c1ccccc1 (stereo not drawn) | AChE (Homo sapiens) | 38.9 |
| Cc1ccc(-c2c(C(C#N)C(N)=O)c([N+](=O)[O-])c(NCc3ccco3)n2Cc2ccco2)cc1 (stereo not drawn) | AChE (Homo sapiens) | 19.8 |
| CCOC(=O)C(C(N)=O)c1c([N+](=O)[O-])c(NCc2ccco2)n(Cc2ccco2)c1-c1ccc(C)cc1 (stereo not drawn) | AChE (Homo sapiens) | 17.8 |
| CSc1c([N+](=O)[O-])c(C(C#N)C(N)=O)c(-c2ccc(Cl)cc2)n1-c1ccc(O)cc1 (stereo not drawn) | AChE (Homo sapiens) | 89.8 |
| N#CC(C(N)=O)c1c(-c2ccc(Cl)cc2)[nH]c(N)c1[N+](=O)[O-] (stereo not drawn) | AChE (Homo sapiens) | 48.6 |
| COc1ccc(-n2c(SC)c([N+](=O)[O-])c(C(C#N)C(N)=O)c2-c2ccc(Cl)cc2)cc1 (stereo not drawn) | AChE (Homo sapiens) | 48.6 |
| CSc1c([N+](=O)[O-])c(C(C#N)C(N)=O)c(-c2ccc(C)cc2)n1-c1ccc(O)cc1 (stereo not drawn) | AChE (Homo sapiens) | 52.4 |
| CCOC(=O)C(C(N)=O)c1c([N+](=O)[O-])c(SC)n(-c2ccc(C)cc2)c1-c1ccccc1 (stereo not drawn) | AChE (Homo sapiens) | 24.2 |

###

Molecular target: AChE (Homo sapiens)
Test: biochemical
Conditions: 50 µM compound; mean ± SD; NA = not active
Protocol: A previously described modified protocol of Ellman's spectrophotometric assay in clear flat-bottomed, 96-well plates, was used. […] The absorbance of each well was measured at 415 nm using a microplate reader. […]
A collection of compounds and their measured inhibition at 50 µM

| Compound | inhibition at 50 µM (%) |
| --- | --- |
| CCOC(=O)C(C(N)=O)c1c([N+](=O)[O-])c2n(c1-c1ccccc1)CCCN2 (stereo not shown) | 30.8 |
| Cc1ccc(-c2c(C(C#N)C(N)=O)c([N+](=O)[O-])c3n2CCCN3)cc1 (stereo not shown) | 14.7 |
| Cc1ccc(-c2c(C(C#N)C(N)=O)c([N+](=O)[O-])c3n2CC(C)(C)CN3)cc1 (stereo not shown) | 45.8 |
| CCOC(=O)C(C(N)=O)c1c([N+](=O)[O-])c(SC)n(-c2ccc(OC)cc2)c1-c1ccc(Cl)cc1 (stereo not shown) | 11.8 |

###

Target: AChE (Homo sapiens)
Assay: biochemical
Conditions: 50 µM compound; mean ± SD; NA = not active
Below is a list of entries, each paired with its recorded inhibition at 50 µM value.
Quantity measured: inhibition at 50 µM (%)

| Molecule | Quantity measured | Numeric readout |
| --- | --- | --- |
| CSc1c([N+](=O)[O-])c(C(C#N)C(N)=O)c(-c2ccc(C)cc2)n1-c1ccc(C)cc1 (stereo not shown) | inhibition at 50 µM | 33.3 |
| N#CC(C(N)=O)c1c([N+](=O)[O-])c2n(c1-c1ccc(Cl)cc1)CCCN2 (stereo not shown) | inhibition at 50 µM | 33.9 |
| CC1(C)CNc2c([N+](=O)[O-])c(C(C#N)C(N)=O)c(-c3ccccc3)n2C1 (stereo not shown) | inhibition at 50 µM | 52 |
| CSc1c([N+](=O)[O-])c(C(C#N)C(N)=O)c(-c2ccc(C)cc2)n1-c1ccc(C)c(C)c1 (stereo not shown) | inhibition at 50 µM | 26.7 |

###

Molecular target: UniProt P22303
Test: Kinetic study of AChE inhibition (Lineweaver-Burk plots, Ellman's method)
Type: biochemical
Conditions: estimated from plot of Km versus concentrations of 4ad (0-8 µM); substrate acetylthiocholine 0.1-1 mM; read-out: inhibition constant, Ki
pKi: −log10 of the molar value.

| Compound | Test system | pKi |
| --- | --- | --- |
| CSc1c([N+](=O)[O-])c(C(C#N)C(N)=O)c(-c2ccc(Cl)cc2)n1-c1ccc(O)cc1 (stereo not shown) [Compound 4ad] | UniProt P22303 | 5.55 |

###

A set of compounds tested on BChE (Homo sapiens), with measured IC50:
Quantity measured: IC50

| Compound | Quantity measured | Result |
| --- | --- | --- |
| CCOC(=O)C(C(N)=O)c1c([N+](=O)[O-])c(NCc2ccco2)n(Cc2ccco2)c1-c1ccc(C)cc1 (centres unmarked) | IC50 | 18.6 µM |
| Cc1ccc(-c2c(C(C#N)C(N)=O)c([N+](=O)[O-])c(NCc3ccco3)n2Cc2ccco2)cc1 (centres unmarked) | IC50 | 69.2 µM |

###

Target: BChE (Homo sapiens, UniProt P06276)
Sequence (P06276 29-602): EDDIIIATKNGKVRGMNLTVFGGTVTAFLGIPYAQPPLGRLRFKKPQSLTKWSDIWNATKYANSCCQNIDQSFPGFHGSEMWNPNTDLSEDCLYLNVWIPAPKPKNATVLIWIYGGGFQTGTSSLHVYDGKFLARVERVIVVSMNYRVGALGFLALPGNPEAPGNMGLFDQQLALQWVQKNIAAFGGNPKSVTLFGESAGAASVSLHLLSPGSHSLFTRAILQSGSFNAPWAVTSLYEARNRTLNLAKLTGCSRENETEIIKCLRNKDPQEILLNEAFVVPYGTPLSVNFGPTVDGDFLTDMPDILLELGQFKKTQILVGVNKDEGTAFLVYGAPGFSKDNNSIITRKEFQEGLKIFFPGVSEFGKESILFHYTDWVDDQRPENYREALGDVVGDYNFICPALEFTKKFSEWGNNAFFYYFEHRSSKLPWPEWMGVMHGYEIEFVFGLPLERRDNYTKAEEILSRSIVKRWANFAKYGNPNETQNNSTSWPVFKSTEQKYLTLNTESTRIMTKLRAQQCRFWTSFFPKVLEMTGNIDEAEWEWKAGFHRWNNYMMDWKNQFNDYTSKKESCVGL
Test: BChE inhibition, modified Ellman's spectrophotometric assay
Format: biochemical
Conditions: 50 µM compound; mean ± SD; NA = not active

| Compound | inhibition at 50 µM [%] |
| --- | --- |
| COC(=O)C(C(N)=O)c1c([N+](=O)[O-])c2n(c1-c1ccc(C)cc1)CC(C)(C)CN2 (stereo not drawn) | 28.2 |
| Cc1ccc(-c2c(C(C#N)C(N)=O)c([N+](=O)[O-])c3n2CCCN3)cc1 (stereo not drawn) | 26.1 |
| N#CC(C(N)=O)c1c(-c2ccc(Cl)cc2)[nH]c(N)c1[N+](=O)[O-] (stereo not drawn) | 33.5 |
| COc1cccc(-c2c(C(C#N)C(N)=O)c([N+](=O)[O-])c3n2CCCN3)c1 (stereo not drawn) | 17.8 |
| COC(=O)C(C(N)=O)c1c([N+](=O)[O-])c2n(c1-c1ccc(Cl)cc1)CC(C)(C)CN2 (stereo not drawn) | 13.7 |
| COc1ccc(-c2[nH]c(N)c([N+](=O)[O-])c2C(C#N)C(N)=O)cc1 (stereo not drawn) | 19.4 |
| CCOC(=O)C(C(N)=O)c1c([N+](=O)[O-])c(NCc2ccco2)n(Cc2ccco2)c1-c1ccc(C)cc1 (stereo not drawn) | 68.4 |
| CCOC(=O)C(C(N)=O)c1c([N+](=O)[O-])c2n(c1-c1ccccc1)CC(C)(C)CN2 (stereo not drawn) | 13.5 |
| CSc1c([N+](=O)[O-])c(C(C#N)C(N)=O)c(-c2ccc(Cl)cc2)n1-c1ccc(O)cc1 (stereo not drawn) | 20 |
| CCOC(=O)C(C(N)=O)c1c([N+](=O)[O-])c(NCc2ccccc2)n(Cc2ccccc2)c1-c1ccc(C)cc1 (stereo not drawn) | 26.5 |
| N#CC(C(N)=O)c1c([N+](=O)[O-])c(NCc2ccco2)n(Cc2ccco2)c1-c1ccc(Cl)cc1 (stereo not drawn) | 29.5 |
| CCOC(=O)C(C(N)=O)c1c([N+](=O)[O-])c(NCc2ccco2)n(Cc2ccco2)c1-c1ccc(Cl)cc1 (stereo not drawn) | 21.9 |
| CCOC(=O)C(C(N)=O)c1c([N+](=O)[O-])c(SC)n(-c2ccc(OC)cc2)c1-c1ccc(Cl)cc1 (stereo not drawn) | 33.8 |
| COc1ccc(-n2c(SC)c([N+](=O)[O-])c(C(C#N)C(N)=O)c2-c2ccc(Cl)cc2)cc1 (stereo not drawn) | 22.3 |
| Cc1ccc(-c2c(C(C#N)C(N)=O)c([N+](=O)[O-])c(NCc3ccco3)n2Cc2ccco2)cc1 (stereo not drawn) | 46.1 |
| N#CC(C(N)=O)c1c(-c2ccc3ccccc3c2)[nH]c(N)c1[N+](=O)[O-] (stereo not drawn) | 19.1 |
| CSc1c([N+](=O)[O-])c(C(C#N)C(N)=O)c(-c2ccc(C)cc2)n1-c1ccc(O)cc1 (stereo not drawn) | 17.1 |
| CC1(C)CNc2c([N+](=O)[O-])c(C(C#N)C(N)=O)c(-c3ccc(Cl)cc3)n2C1 (stereo not drawn) | 18.1 |
